measurement target: human glucagon receptor (Homo sapiens, UniProt P47871)
Construct: expressed in transfected cells; host or cells: BHK (baby hamster kidney) cells
Sequence (P47871 26-477): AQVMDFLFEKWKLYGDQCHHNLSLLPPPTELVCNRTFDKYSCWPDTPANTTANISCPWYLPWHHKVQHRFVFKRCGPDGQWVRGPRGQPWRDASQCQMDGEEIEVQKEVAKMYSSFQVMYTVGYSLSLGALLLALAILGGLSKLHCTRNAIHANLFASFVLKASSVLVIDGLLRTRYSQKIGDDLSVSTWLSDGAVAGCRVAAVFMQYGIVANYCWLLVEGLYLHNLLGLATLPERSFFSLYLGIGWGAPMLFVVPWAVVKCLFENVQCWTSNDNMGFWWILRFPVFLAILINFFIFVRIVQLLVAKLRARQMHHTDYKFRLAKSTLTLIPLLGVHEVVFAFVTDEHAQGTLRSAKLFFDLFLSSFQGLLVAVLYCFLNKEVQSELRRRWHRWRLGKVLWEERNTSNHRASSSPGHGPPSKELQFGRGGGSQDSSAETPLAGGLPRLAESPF
protocol description: Glucagon Binding Assay (III)
run parameters: BHK cell membranes, WGA SPA beads, 125I-glucagon; read-out: Glu Bd Assay (III) IC50
pIC50: −log10 of the molar value.
Could you label it Y if measured pIC50 is 7 or higher, and N otherwise?

Problem: State whether the measured pIC50 reaches 7, counting equality as reaching it, for O=C(Nc1nn[nH]n1)c1ccc(CN(C(=O)Nc2cccc(SCC3CC3)c2)c2ccc(C3CCCCC3)cc2)cc1 [Example 299]
Solution: N

Problem: State whether the measured pIC50 reaches 7, counting equality as reaching it, for CCCCN1C(=O)c2ccc(NC(=O)N(Cc3ccc(C(=O)Nc4nn[nH]n4)cc3)c3ccc(C4=CCCCC4)cc3)cc2C1=O [Example 625]
Solution: Y

Problem: State whether the measured pIC50 reaches 7, counting equality as reaching it, for O=C(Nc1nn[nH]n1)c1ccc(CN(C(=O)Nc2cccc([N+](=O)[O-])c2)c2ccc(C3CCCCC3)cc2)cc1 [Example 286]
Solution: Y

Problem: State whether the measured pIC50 reaches 7, counting equality as reaching it, for Cc1cc(NC(=O)N(Cc2ccc(C(=O)Nc3nn[nH]n3)cc2)c2ccc(C3=CCCCC3)cc2)cc(C(F)(F)F)c1 [Example 362]
Solution: Y

Problem: State whether the measured pIC50 reaches 7, counting equality as reaching it, for CC(C)(C)C1CCC(N(Cc2ccc(C(=O)Nc3nn[nH]n3)cc2)C(=O)Cc2ccc(OC(F)(F)F)cc2)CC1 (stereo not drawn) [Example 502]
Solution: Y

Problem: State whether the measured pIC50 reaches 7, counting equality as reaching it, for CC(C)(C)[C@H]1CC[C@H](N(Cc2ccc(C(=O)NCCC(=O)NO)cc2)C(=O)Nc2ccc(OC(F)(F)F)cc2)CC1 [Example 376]
Solution: N

Problem: State whether the measured pIC50 reaches 7, counting equality as reaching it, for O=C(Nc1nn[nH]n1)c1ccc(CN(CC(c2ccccc2)c2ccccc2)C(=O)Cc2cccc(OC(F)(F)F)c2)cc1 [Example 529]
Solution: N

Problem: State whether the measured pIC50 reaches 7, counting equality as reaching it, for CC(C)(C)C1CCC(N(Cc2ccc(C(=O)NCCC(=O)O)cc2)C(=O)NCCc2cccs2)CC1 (stereo not drawn) [Example 23]
Solution: N

Problem: State whether the measured pIC50 reaches 7, counting equality as reaching it, for CC(C)(C)C1CCC(N(Cc2ccc(C(=O)Nc3nn[nH]n3)cc2)C(=O)Cc2c(Cl)cccc2Cl)CC1 (stereo not drawn) [Example 539]
Solution: N

Problem: State whether the measured pIC50 reaches 7, counting equality as reaching it, for CC(C)(C)[C@H]1CC[C@H](N(Cc2ccc(C(=O)NCCC(=O)O)cc2)C(=O)Nc2cc(C(F)(F)F)cc(C(F)(F)F)c2)CC1 [Example 100]
Solution: Y

Problem: State whether the measured pIC50 reaches 7, counting equality as reaching it, for CC(=O)c1cccc(NC(=O)N(Cc2ccc(C(=O)Nc3nn[nH]n3)cc2)c2ccc(C3CCCCC3)cc2)c1 [Example 283]
Solution: Y

Problem: State whether the measured pIC50 reaches 7, counting equality as reaching it, for CC(C)(C)C1CCC(N(Cc2ccc(C(=O)NCCC(=O)O)cc2)C(=O)Nc2ccc(C(F)(F)F)cc2)CC1 (stereo not drawn) [Example 63]
Solution: N

Problem: State whether the measured pIC50 reaches 7, counting equality as reaching it, for CC(C)(C)C1CCC(N(Cc2ccc(C(=O)NCCC(=O)O)cc2)C(=O)Nc2ccc(-c3ccc(C#N)cc3)cc2)CC1 (stereo not drawn) [Example 68]
Solution: N

Problem: State whether the measured pIC50 reaches 7, counting equality as reaching it, for CC(C)(C)C1CCC(N(Cc2ccc(C(=O)NCCC(=O)O)cc2)C(=O)Oc2ccc(Cl)c(Cl)c2)CC1 (stereo not drawn) [Example 401]
Solution: N

Problem: State whether the measured pIC50 reaches 7, counting equality as reaching it, for CC(Oc1ccc(Cl)cc1)C(=O)N(Cc1ccc(C(=O)Nc2nn[nH]n2)cc1)C1CCC(C(C)(C)C)CC1 (stereo not drawn) [Example 542]
Solution: N

Problem: State whether the measured pIC50 reaches 7, counting equality as reaching it, for CCCCOc1ccc(NC(=O)N(Cc2ccc(C(=O)Nc3nn[nH]n3)cc2)c2ccc(C3CCCCC3)cc2)cc1S(C)(=O)=O [Example 368]
Solution: Y

Problem: State whether the measured pIC50 reaches 7, counting equality as reaching it, for CCCCN1C(=O)c2ccc(NC(=O)N(Cc3ccc(C(=O)NCCC(=O)O)cc3)c3ccc(C(C)(C)C)cc3)cc2C1=O [Example 626]
Solution: Y

Problem: State whether the measured pIC50 reaches 7, counting equality as reaching it, for CC(=O)c1ccc(NC(=O)N(Cc2ccc(C(=O)Nc3nn[nH]n3)cc2)C2CCC(C(C)(C)C)CC2)cc1 (stereo not drawn) [Example 273]
Solution: N

Problem: State whether the measured pIC50 reaches 7, counting equality as reaching it, for CC(C)(C)c1ccc(N(Cc2ccc(C(=O)Nc3nn[nH]n3)cc2)C(=O)Nc2ccc(OC(F)(F)F)c(S(C)(=O)=O)c2)cc1 [Example 312]
Solution: Y

Problem: State whether the measured pIC50 reaches 7, counting equality as reaching it, for CC(C)OC(=O)c1ccc(NC(=O)N(Cc2ccc(C(=O)NCCC(=O)O)cc2)C2CCC(C(C)(C)C)CC2)cc1 (stereo not drawn) [Example 73]
Solution: N

Problem: State whether the measured pIC50 reaches 7, counting equality as reaching it, for O=C(O)CCNC(=O)c1ccc(CN(C(=O)Oc2ccc(F)c(F)c2)c2ccc(C3CCCCC3)cc2)cc1 [Example 417]
Solution: N

Problem: State whether the measured pIC50 reaches 7, counting equality as reaching it, for O=C(O)CCNC(=O)c1ccc(CN(CCc2ccc(Cl)c(Cl)c2)C(=O)Nc2ccc(OC(F)(F)F)cc2)cc1 [Example 19]
Solution: N
